# Test system: MCF-10A
# test: Phototoxicity against human MCF10A cells preincubated for 5 mins followed by compound washout and subsequent UV irradiation at 1.5 J/cm2 for 5 mins measured after 72 hrs by MTT assay
# Type: cell-based
# particulars: light or radiation study
pEC50: −log10 of the molar value.
The compounds listed here are annotated with their pEC50.
measured.metric: pEC50

1. COc1ccc(-c2ccc3c(C)nc4c(nnn4-c4ccccc4)c3n2)cc1 = 7.00
2. COc1cc(-c2nc3c(nc(C)c4ccc(-c5ccccc5)nc43)o2)cc(OC)c1OC = 5.36
3. COc1ccc(-c2nc3c(nc(C)c4ccc(-c5ccccc5)nc43)o2)cc1 = 6.06
4. COc1ccccc1-c1ccc2c(C)nc3oc(-c4cc(OC)c(OC)c(OC)c4)nc3c2n1 = 5.73

All figures here come from ChEMBL document CHEMBL4325899.
